Target: Oxysterols receptor LXR-beta (Homo sapiens)
Sequence (P55055 whole entry): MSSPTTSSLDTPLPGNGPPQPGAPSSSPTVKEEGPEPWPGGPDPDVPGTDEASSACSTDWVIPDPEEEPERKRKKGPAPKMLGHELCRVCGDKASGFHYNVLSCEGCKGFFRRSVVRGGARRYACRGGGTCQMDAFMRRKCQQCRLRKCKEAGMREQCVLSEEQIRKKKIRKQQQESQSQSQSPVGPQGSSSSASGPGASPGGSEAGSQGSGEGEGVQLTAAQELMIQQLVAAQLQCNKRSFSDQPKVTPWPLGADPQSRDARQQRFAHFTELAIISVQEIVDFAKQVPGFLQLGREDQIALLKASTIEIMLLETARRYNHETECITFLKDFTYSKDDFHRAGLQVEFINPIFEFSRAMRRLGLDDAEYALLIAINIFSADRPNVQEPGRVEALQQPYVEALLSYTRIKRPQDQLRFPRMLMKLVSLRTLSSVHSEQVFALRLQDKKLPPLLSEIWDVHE
Experiment: HTRF Cofactor Peptide Recruitment Assay
Details: pH 7.5; 22 °C
Reported Metric: EC50 (nM)
Numeric answer only, unit nM assumed.

Prompt: What measured EC50 goes with CC(C)(C)OC(=O)n1c(-c2ccc(CCNS(=O)(=O)c3ccc(-c4ccccn4)s3)cc2)cc2ccccc21 ?
Response: 230

These data points were gathered from BindingDB's records for doi:10.1016/j.bmcl.2007.06.017.
